tested on: p53 reporter system in p53 wild-type U2OS cell line; test: p53-dependent transcription reporter assay, U20SRE; format: cell-based; details: p53 +ve cell type; maximal fold induction over DMSO control
measured-quantity: Fold Induction of p53 activity, U20SRE

chem_smiles=COc1cccc(CN(Cc2ccc(C(=O)N3CCNCC3)cc2)c2nc(-c3ccc(Br)cc3)cs2)c1OC result="a (a means 2 or less)"
chem_smiles=CC(C)N(CCN(Cc1ccc(C(=O)N2CCNCC2)cc1)c1nc(-c2cccc([N+](=O)[O-])c2)cs1)C(C)C result="a (a means 2 or less)"

###

Target: E3 (His-APC11/APC2, "APC") (Homo sapiens, UniProt Q9NYG5+Q9UJX6)
Sequence (Q9NYG5 whole entry): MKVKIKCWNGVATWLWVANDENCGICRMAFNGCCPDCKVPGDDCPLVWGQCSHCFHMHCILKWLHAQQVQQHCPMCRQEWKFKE
Sequence (Q9UJX6 whole entry): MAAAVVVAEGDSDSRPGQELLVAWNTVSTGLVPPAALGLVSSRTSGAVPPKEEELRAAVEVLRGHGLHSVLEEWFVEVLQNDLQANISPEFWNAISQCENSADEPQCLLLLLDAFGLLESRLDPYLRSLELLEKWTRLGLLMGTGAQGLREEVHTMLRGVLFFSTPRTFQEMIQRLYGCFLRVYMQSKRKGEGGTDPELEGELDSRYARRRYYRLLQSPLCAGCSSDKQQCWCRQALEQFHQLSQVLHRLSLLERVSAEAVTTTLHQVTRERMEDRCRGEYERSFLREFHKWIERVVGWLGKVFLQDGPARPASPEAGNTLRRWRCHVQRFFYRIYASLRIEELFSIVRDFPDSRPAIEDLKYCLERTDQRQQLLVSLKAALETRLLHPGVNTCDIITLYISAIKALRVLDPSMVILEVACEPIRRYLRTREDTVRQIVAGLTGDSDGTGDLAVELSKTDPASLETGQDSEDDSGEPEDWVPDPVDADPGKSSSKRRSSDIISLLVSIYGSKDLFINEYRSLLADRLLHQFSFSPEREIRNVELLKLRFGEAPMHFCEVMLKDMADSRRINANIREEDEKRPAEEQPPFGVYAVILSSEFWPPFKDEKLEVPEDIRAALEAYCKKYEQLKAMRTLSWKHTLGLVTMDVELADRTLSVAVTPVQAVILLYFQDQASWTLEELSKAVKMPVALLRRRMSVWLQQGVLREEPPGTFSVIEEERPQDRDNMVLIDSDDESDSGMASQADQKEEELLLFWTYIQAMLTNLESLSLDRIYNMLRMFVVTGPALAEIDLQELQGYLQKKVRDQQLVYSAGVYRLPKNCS
Assay: Plate-based E3 ligase assay (APC FLAG), auto-ubiquitination
Assay type: biochemical
Details: Table 3; read-out: APC Plate IC50
Method: E3 (His-APC11/APC2—“APC”) auto-ubiquitination was measured as described in U.S. patent application Ser. No. 09/826,312 (Publication No. US-2002-0042083-A1), which is incorporated herein in its entirety. Details of the protocol are described below. Activity in the presence of the compound was determined relative to a parallel control in which only DMSO was added. […]
measured-quantity: IC50

Q: Requested field: IC50. Item: `O=C(c1ccc(CN(Cc2cccc(OC(F)(F)F)c2)c2nc(-c3ccc4ccccc4c3)cs2)cc1)N1CCNCC1`
A: 1 to 20 µM

Q: For the compound shown here, `COc1cccc(CN(Cc2ccc(C(=O)N3CCNCC3)cc2)c2nc(-c3ccc(Br)cc3)cs2)c1OC` , give the reported IC50.
A: 1 to 20 µM

Q: Which IC50 is listed for `COc1cccc(-c2csc(N(Cc3ccc(C(=O)N4CCNCC4)cc3)Cc3cccc(OC(F)(F)F)c3)n2)c1` ?
A: 1 to 20 µM

Q: Need IC50, item `O=C(c1ccc(CN(Cc2cccc(OC(F)(F)F)c2)c2nc(-c3ccccc3)cs2)cc1)N1CCNCC1`
A: 1 to 20 µM

Q: Report IC50 for `COc1cccc(-c2csc(N(CCOc3ccccc3)Cc3ccc(C(=O)N4CCNCC4)cc3)n2)c1` please.
A: ≥ 20 µM

Q: Item `O=C(c1ccc(CN(CCOc2ccccc2)c2nc(-c3ccc(Cl)c(Cl)c3)cs2)cc1)N1CCNCC1` has what recorded IC50?
A: 1 to 20 µM

###

Biological target: MDM2 (Homo sapiens, UniProt Q00987)
Sequence (Q00987 whole entry): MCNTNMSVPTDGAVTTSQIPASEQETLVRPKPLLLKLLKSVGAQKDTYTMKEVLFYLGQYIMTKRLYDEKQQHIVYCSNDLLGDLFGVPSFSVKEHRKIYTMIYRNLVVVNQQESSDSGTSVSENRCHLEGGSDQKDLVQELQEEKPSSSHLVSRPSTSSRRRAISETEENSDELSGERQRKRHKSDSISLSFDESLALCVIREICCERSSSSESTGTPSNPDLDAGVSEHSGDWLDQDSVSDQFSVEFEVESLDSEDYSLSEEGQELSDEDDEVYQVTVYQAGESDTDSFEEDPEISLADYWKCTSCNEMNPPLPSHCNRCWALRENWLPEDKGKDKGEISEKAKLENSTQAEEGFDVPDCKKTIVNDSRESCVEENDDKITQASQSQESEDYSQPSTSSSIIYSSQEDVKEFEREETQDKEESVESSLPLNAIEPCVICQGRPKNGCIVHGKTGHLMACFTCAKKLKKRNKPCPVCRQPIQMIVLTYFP
Test: MDM2 gel-based E3 ligase assay
Assay type: biochemical
Conditions: compound at 20 μM; result in words
Method: E3 (His-APC11/APC2—“APC”) auto-ubiquitination was measured as described in U.S. patent application Ser. No. 09/826,312 (Publication No. US-2002-0042083-A1), which is incorporated herein in its entirety. Details of the protocol are described below. Activity in the presence of compound was determined relative to a parallel control in which only DMSO is added. […]
measured-quantity: MDM2 Gel 20 μM

// below: answered molecules
chem_smiles=O=C(c1ccc(CN(Cc2cccc(OC(F)(F)F)c2)c2nc(-c3ccc4ccccc4c3)cs2)cc1)N1CCNCC1 measured_quantity="MDM2 Gel 20 μM" result=Potent
chem_smiles=COc1cccc(-c2csc(N(CCOc3ccccc3)Cc3ccc(C(=O)N4CCNCC4)cc3)n2)c1 measured_quantity="MDM2 Gel 20 μM" result=Weak
chem_smiles=COc1cccc(-c2csc(N(Cc3ccc(C(=O)N4CCNCC4)cc3)Cc3cccc(OC(F)(F)F)c3)n2)c1 measured_quantity="MDM2 Gel 20 μM" result=Active
chem_smiles=O=C(c1ccc(CN(CCOc2ccccc2)c2nc(-c3ccc(Cl)c(Cl)c3)cs2)cc1)N1CCNCC1 measured_quantity="MDM2 Gel 20 μM" result=Potent
chem_smiles=O=C(c1ccc(CN(Cc2cccc(OC(F)(F)F)c2)c2nc(-c3ccccc3)cs2)cc1)N1CCNCC1 measured_quantity="MDM2 Gel 20 μM" result=Weak

Then this molecule:
Q: Form field: reported MDM2 Gel 20 μM of `COc1cccc(CN(Cc2ccc(C(=O)N3CCNCC3)cc2)c2nc(-c3ccc(Br)cc3)cs2)c1OC`
A: Active
